Measured values drawn from the kinase profiling compilation of Christmann-Franck et al. (2016) for this set.

Listing: residual activity of selected compounds
biological target: UniProt:Q15303; test: radiometric filter-binding kinase assay; settings: compound 0.1 µM
Sequence (Q15303 whole entry, looked up): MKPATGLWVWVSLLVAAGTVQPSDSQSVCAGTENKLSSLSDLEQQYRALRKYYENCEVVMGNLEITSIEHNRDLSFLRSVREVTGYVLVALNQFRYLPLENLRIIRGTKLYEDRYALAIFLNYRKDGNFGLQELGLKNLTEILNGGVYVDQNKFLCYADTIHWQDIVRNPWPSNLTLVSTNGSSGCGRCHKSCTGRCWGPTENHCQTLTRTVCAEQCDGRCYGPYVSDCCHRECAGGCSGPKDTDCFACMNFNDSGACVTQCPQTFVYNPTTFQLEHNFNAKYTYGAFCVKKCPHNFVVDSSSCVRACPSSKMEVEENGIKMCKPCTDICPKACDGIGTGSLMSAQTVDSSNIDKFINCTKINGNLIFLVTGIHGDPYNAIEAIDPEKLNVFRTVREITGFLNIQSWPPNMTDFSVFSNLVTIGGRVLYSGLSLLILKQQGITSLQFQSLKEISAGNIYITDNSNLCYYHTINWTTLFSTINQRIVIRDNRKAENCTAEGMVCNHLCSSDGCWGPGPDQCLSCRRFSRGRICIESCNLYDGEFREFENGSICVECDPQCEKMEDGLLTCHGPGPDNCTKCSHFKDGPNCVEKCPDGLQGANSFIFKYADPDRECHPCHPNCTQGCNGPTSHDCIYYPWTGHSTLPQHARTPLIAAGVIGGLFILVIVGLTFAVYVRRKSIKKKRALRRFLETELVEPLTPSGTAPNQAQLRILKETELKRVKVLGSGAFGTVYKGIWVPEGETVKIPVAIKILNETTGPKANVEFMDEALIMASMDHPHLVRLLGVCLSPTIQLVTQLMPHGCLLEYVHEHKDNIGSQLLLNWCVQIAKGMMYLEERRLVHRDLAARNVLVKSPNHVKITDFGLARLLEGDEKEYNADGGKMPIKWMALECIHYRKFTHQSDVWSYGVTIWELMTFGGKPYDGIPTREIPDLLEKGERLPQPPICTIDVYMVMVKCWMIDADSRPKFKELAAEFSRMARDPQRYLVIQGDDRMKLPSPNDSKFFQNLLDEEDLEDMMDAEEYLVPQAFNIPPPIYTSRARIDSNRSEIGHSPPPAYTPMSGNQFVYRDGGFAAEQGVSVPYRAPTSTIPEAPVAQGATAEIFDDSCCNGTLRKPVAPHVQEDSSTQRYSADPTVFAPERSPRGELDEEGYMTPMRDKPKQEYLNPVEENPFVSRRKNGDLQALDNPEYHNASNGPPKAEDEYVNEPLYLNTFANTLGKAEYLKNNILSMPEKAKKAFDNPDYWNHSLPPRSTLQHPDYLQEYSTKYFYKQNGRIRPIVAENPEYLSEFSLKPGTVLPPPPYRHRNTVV

SMILES_ENTRY | residual activity / %
O=C(N[C@@H](COc1ccc2[nH]c(=O)[nH]c2c1)c1ccccc1)c1cccn(Cc2ccc(F)c(F)c2)c1=O | 102
NC(=O)c1cc(-c2ccnc(NC3CCCCC3)c2)nc(N2CCNCC2)c1 | 83
O=C(NCCCNc1nc(Nc2cccc(CN3CCOCC3)c2)ncc1C1CC1)C1CCC1 | 90
Cc1cc(NC(=O)c2cccc(NC(=O)/C=C/CN(C)C)c2)ccc1Nc1nccc(-c2cccnc2)n1 | 102
O=C(O)c1ccc(-c2c[nH]c3ncc(-c4ccccc4)cc23)cc1C1CCCC1 | 105
COc1cc(O)c2c(c1)/C=C/C[C@H](O)[C@H](O)C(=O)/C=C\C[C@H](C)OC2=O | 100
c1ccc2c(-c3cnn4cc(-c5ccc(N6CCNCC6)cc5)cnc34)ccnc2c1 | 88
O=C(Nc1nc2cc(C(F)(F)F)cc(NC3CC3)n2n1)c1cccnc1 | 88
CN1CCN(CCOc2cc(OC3CCOCC3)c3c(Nc4c(Cl)ccc5c4OCO5)ncnc3c2)CC1 | 67

* * *

Listing: residual activity of selected compounds
molecular target: TEK (human) (UniProt Q02763); assay: radiometric filter-binding kinase assay; details: compound 1.0 µM
Sequence (Q02763 whole entry, looked up): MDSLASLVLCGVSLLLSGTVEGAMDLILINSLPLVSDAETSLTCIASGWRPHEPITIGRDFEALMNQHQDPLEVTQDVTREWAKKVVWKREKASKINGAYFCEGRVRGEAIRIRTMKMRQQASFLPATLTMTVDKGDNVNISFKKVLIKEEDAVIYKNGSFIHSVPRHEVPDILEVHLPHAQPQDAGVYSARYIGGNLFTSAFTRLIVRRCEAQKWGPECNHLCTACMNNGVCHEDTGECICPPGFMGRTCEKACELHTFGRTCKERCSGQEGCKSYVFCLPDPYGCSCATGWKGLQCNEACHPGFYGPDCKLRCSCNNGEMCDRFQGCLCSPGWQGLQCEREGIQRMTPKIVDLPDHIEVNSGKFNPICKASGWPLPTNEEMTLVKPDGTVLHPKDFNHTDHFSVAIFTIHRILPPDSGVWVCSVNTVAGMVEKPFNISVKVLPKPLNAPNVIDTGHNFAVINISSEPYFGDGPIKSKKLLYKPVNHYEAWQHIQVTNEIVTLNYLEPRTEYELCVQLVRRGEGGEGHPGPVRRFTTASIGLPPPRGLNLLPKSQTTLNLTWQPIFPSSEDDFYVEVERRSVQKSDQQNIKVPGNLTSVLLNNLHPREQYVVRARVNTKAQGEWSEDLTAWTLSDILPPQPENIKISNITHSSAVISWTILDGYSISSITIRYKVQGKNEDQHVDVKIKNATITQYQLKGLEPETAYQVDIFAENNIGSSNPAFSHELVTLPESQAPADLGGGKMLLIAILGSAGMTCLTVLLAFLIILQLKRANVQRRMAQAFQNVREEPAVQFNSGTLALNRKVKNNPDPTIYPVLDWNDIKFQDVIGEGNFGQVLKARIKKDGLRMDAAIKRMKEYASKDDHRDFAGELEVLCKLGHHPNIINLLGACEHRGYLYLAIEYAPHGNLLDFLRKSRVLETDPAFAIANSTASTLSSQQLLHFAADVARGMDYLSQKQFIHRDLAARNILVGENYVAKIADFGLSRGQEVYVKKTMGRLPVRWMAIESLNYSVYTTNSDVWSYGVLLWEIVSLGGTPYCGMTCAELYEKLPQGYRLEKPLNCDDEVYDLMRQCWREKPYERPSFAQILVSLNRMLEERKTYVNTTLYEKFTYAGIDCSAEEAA

COMPOUND | residual activity
CN(C)C/C=C/C(=O)Nc1cccc(C(=O)Nc2ccc(Nc3nccc(-c4cccnc4)n3)cc2)c1 | 84%
COc1cc(O)c2c(c1)/C=C/C[C@H](O)[C@H](O)C(=O)/C=C\C[C@H](C)OC2=O | 93%
Cc1cc(NC(=O)c2cccc(NC(=O)/C=C/CN(C)C)c2)ccc1Nc1nccc(-c2cccnc2)n1 | 98%
CC(C)(C#N)c1ccc(N2C(=O)OCc3cnc4ccc(-c5cnc6ccccc6c5)cc4c32)cc1 | 93%
c1ccc2c(-c3cnn4cc(-c5ccc(N6CCNCC6)cc5)cnc34)ccnc2c1 | 86%
C=CC(=O)N1CCC[C@@H](n2nc(-c3ccc(Oc4ccccc4)cc3)c3c(N)ncnc32)C1 | 34%
CNc1nc(-c2ccc3c(N)n[nH]c3c2)cc(N2C[C@@H](C(=O)NC3CCCCC3)CC[C@H]2C)n1 | 105%
O=C(NCCCNc1nc(Nc2cccc(CN3CCOCC3)c2)ncc1C1CC1)C1CCC1 | 81%
COc1cc(C(=O)N2CCOCC2)c(F)cc1Nc1ncc(C(F)(F)F)c(NC2CC2)n1 | 85%
COc1ccc(-n2ncc3cnc(Nc4cc(OC)c(OC)c(OCCCN5CCN(C)CC5)c4)nc32)cc1 | 11%
CC1=C(CO)C(=O)O[C@@H]([C@@H](C)[C@H]2CC[C@H]3[C@@H]4C[C@H]5O[C@]56[C@@H](O)C=CC(=O)[C@]6(C)C4CC[C@]23C)C1 (some centres not stated) | 98%
NC(=O)c1cc(-c2ccnc(NC3CCCCC3)c2)nc(N2CCNCC2)c1 | 111%

* * *

molecular target: GCK (human) (UniProt Q12851); assay: radiometric filter-binding kinase assay; conditions: compound 1.0 µM
Sequence (Q12851 whole entry, looked up): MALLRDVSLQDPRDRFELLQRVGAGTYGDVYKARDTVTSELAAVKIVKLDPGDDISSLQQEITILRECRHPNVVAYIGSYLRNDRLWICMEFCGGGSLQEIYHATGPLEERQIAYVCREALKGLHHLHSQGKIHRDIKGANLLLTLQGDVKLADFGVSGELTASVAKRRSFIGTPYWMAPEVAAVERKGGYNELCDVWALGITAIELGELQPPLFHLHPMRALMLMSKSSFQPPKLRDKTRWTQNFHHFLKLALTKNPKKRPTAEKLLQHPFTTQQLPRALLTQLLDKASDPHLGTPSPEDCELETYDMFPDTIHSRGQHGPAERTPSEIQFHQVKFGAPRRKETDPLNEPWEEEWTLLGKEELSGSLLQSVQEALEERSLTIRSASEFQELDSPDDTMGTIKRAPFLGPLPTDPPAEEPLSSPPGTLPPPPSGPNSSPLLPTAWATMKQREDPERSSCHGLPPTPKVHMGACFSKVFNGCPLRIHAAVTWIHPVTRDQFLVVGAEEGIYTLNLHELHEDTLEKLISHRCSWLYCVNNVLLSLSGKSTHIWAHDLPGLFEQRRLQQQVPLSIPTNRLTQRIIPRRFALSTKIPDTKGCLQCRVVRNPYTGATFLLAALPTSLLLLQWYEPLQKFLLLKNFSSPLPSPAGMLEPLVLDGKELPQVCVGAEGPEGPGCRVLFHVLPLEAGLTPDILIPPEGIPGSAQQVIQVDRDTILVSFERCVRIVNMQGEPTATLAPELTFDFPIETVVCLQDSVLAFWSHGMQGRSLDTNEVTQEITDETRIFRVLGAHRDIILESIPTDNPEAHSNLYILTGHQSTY
Listing: residual activity of selected compounds

SMILES_ENTRY | TARGET | residual activity [%]
Cc1ccc(-c2ccc3c(ccc4sc5c(c43)NC[C@@H](C)NC5=O)n2)cn1 | GCK (human) (UniProt Q12851) | 89
CC(C)(C#N)c1ccc(N2C(=O)OCc3cnc4ccc(-c5cnc6ccccc6c5)cc4c32)cc1 | GCK (human) (UniProt Q12851) | 22
NC(=O)c1cc2c(-c3cccc(-c4ccccc4)c3)cnc(N)c2s1 | GCK (human) (UniProt Q12851) | 6
FC(F)(F)c1ccc(-c2ccc(Oc3cncc4sc(-c5nn[nH]n5)cc34)cc2)cc1 | GCK (human) (UniProt Q12851) | 68

* * *

target: ULK2 (human) (UniProt Q8IYT8); experiment: radiometric filter-binding kinase assay; conditions: compound 0.1 µM
Listing: residual activity of selected molecules

MOLECULE | TARGET | residual activity / %
CNC(=O)C1[C@H]2O[C@@](C)([C@@H]1N)n1c3ccccc3c3c4c(c5c6ccccc6n2c5c31)C(=O)NC4 (stereo not given in full) | ULK2 (human) (UniProt Q8IYT8) | 5
CCn1c(-c2nonc2N)nc2cncc(CNC3CCNCC3)c21 | ULK2 (human) (UniProt Q8IYT8) | 93
Cc1ccc(-c2ccc3c(ccc4sc5c(c43)NC[C@@H](C)NC5=O)n2)cn1 | ULK2 (human) (UniProt Q8IYT8) | 109
COc1cc(O)c2c(c1)[C@H]1OC1C[C@H](O)[C@H](O)C(=O)/C=C\C[C@H](C)OC2=O (stereo not given in full) | ULK2 (human) (UniProt Q8IYT8) | 96
CC1=C(CO)C(=O)O[C@@H]([C@@H](C)[C@H]2CC[C@H]3[C@@H]4C[C@H]5O[C@]56[C@@H](O)C=CC(=O)[C@]6(C)C4CC[C@]23C)C1 (stereo not given in full) | ULK2 (human) (UniProt Q8IYT8) | 92

* * *

Listing: residual activity of selected compounds
target: SRC (human) (UniProt P12931); assay: radiometric filter-binding kinase assay; conditions: compound 0.01 µM
Sequence (P12931 whole entry, looked up): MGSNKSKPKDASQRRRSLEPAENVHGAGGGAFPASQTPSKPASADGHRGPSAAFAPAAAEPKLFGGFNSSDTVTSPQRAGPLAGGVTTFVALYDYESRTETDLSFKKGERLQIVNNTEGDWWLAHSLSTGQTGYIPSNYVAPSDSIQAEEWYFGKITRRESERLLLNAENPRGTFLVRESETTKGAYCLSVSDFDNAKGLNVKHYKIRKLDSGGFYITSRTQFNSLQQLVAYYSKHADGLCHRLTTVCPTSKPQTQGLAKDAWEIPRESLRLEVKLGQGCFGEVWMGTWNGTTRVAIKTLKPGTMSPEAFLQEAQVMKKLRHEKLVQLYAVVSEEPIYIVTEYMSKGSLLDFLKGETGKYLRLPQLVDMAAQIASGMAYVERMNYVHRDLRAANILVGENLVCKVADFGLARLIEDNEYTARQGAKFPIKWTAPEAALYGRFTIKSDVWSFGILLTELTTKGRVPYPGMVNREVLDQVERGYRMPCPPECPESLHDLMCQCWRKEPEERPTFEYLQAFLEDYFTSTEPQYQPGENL
ASSAY_READOUT: residual activity (%)

COMPOUND | UNIT_DESCRIPTOR | REPORTED
CNC(=O)C1[C@H]2O[C@@](C)([C@@H]1N)n1c3ccccc3c3c4c(c5c6ccccc6n2c5c31)C(=O)NC4 (stereo partly specified) | % | 78
COc1ccc(N(C(=O)Nc2c(C)cccc2C)c2cc(Nc3ccc(N4CCN(C)CC4)cc3)ncn2)c(OC)c1 | % | 45
O=C(Nc1nc2cc(C(F)(F)F)cc(NC3CC3)n2n1)c1cccnc1 | % | 100
CNc1nc(-c2ccc3c(N)n[nH]c3c2)cc(N2C[C@@H](C(=O)NC3CCCCC3)CC[C@H]2C)n1 | % | 101
C/C(=C1/C(=O)Nc2ccc(NC(N)=O)cc21)c1ccc[nH]1 | % | 79
COc1cc(O)c2c(c1)[C@H]1OC1C[C@H](O)[C@H](O)C(=O)/C=C\C[C@H](C)OC2=O (stereo partly specified) | % | 96

* * *

target: SYK (human); experiment: radiometric filter-binding kinase assay; settings: compound 1.0 µM
Listing: residual activity of selected compounds
ASSAY_READOUT: residual activity (%)

SMILES_ENTRY | UNIT_DESCRIPTOR | REPORTED
Cc1nc(-c2ccc(OCC(C)C)c(C#N)c2)sc1C(=O)O | % | 158
NC(=O)c1c(NC(=O)C2CC2)sc2c1CCCC2 | % | 102
NS(=O)(=O)OC[C@@H]1C[C@@H](n2ccc3c(N[C@H]4CCc5ccccc54)ncnc32)C[C@@H]1O | % | 92
Oc1ccc2ccccc2c1SSc1c(O)ccc2ccccc12 | % | 77
Cc1cccc(-c2nn(C(=S)Nc3ccccc3)cc2-c2ccnc3ccccc23)n1 | % | 106
COc1cc(O)c2c(c1)/C=C/C[C@H](O)[C@H](O)C(=O)/C=C\C[C@H](C)OC2=O | % | 77
NC(=O)c1ccc(-c2ccc(Oc3cncc4sc(-c5nn[nH]n5)cc34)cc2)cc1 | % | 107

* * *

Listing: residual activity of selected molecules
target: CSK (human) (UniProt P41240); assay: radiometric filter-binding kinase assay; conditions: compound 0.01 µM
Sequence (P41240 whole entry, looked up): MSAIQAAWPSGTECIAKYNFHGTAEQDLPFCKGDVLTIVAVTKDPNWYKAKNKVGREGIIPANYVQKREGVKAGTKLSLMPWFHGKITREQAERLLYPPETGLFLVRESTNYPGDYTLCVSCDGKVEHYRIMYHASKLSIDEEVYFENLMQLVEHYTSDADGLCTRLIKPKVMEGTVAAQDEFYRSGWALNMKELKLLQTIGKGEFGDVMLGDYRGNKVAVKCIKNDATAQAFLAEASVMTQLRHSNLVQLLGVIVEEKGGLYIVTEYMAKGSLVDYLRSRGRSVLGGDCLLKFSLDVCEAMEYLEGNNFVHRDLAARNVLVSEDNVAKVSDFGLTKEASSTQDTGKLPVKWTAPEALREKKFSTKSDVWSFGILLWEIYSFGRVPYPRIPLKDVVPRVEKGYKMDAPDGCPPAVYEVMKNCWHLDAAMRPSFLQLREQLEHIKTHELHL

MOLECULE | residual activity
O=C(Nc1nc2cc(C(F)(F)F)cc(NC3CC3)n2n1)c1cccnc1 | 96%
C/C(=C1/C(=O)Nc2ccc(NC(N)=O)cc21)c1ccc[nH]1 | 97%
COc1ccc(N(C(=O)Nc2c(C)cccc2C)c2cc(Nc3ccc(N4CCN(C)CC4)cc3)ncn2)c(OC)c1 | 119%
CNC(=O)C1[C@H]2O[C@@](C)([C@@H]1N)n1c3ccccc3c3c4c(c5c6ccccc6n2c5c31)C(=O)NC4 (stereo not given in full) | 112%
CNc1nc(-c2ccc3c(N)n[nH]c3c2)cc(N2C[C@@H](C(=O)NC3CCCCC3)CC[C@H]2C)n1 | 103%

* * *

Listing: residual activity of selected molecules
target: NEK6 (human) (UniProt Q9HC98); test: radiometric filter-binding kinase assay; conditions: compound 10.0 µM
Sequence (Q9HC98 whole entry, looked up): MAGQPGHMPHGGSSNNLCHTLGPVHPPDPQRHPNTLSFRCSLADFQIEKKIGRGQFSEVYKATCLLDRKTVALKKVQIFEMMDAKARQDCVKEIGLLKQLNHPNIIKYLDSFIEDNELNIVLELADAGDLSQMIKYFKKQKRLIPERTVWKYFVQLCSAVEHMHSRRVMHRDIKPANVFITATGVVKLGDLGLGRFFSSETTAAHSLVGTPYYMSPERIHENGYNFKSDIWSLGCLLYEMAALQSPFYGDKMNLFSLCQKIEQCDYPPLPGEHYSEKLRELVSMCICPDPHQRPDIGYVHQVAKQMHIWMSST
ASSAY_READOUT: residual activity (%)

MOLECULE | TARGET | REPORTED
NCC(=O)Nc1ccc(-n2nc(C(F)(F)F)cc2-c2ccc3c(ccc4ccccc43)c2)cc1 | NEK6 (human) (UniProt Q9HC98) | 63
COC(=O)/C=C/C(=O)OC | NEK6 (human) (UniProt Q9HC98) | 103
COc1cc2ncn(-c3cc(OCc4ccccc4S(C)(=O)=O)c(C#N)s3)c2cc1OC | NEK6 (human) (UniProt Q9HC98) | 77
O=C(N[C@@H](COc1ccc2[nH]c(=O)[nH]c2c1)c1ccccc1)c1cccn(Cc2ccc(F)c(F)c2)c1=O | NEK6 (human) (UniProt Q9HC98) | 98
O=C(O)c1ccc(-c2c[nH]c3ncc(-c4ccccc4)cc23)cc1C1CCCC1 | NEK6 (human) (UniProt Q9HC98) | 107
COc1ccc2c(c1)c1c3c(c4c5ccccc5n(C)c4c1n2CC(O)CN(C)C)C(=O)NC3=O (stereo not given) | NEK6 (human) (UniProt Q9HC98) | 84
NC(=O)Nc1ccc2c(c1)/C(=C/c1cc(-c3cccnc3)c[nH]1)C(=O)N2 | NEK6 (human) (UniProt Q9HC98) | 38
Cc1nc(-c2ccc(OCC(C)C)c(C#N)c2)sc1C(=O)O | NEK6 (human) (UniProt Q9HC98) | 99
O=C1NC(=S)N[C@@H]1Cc1c[nH]c2ccccc12 | NEK6 (human) (UniProt Q9HC98) | 87
O=C(NOC[C@H](O)CO)c1ccc(F)c(F)c1Nc1ccc(I)cc1Cl | NEK6 (human) (UniProt Q9HC98) | 110
